System Tested: Glycogen synthase kinase-3 beta (Homo sapiens)
Sequence (P49841 whole entry): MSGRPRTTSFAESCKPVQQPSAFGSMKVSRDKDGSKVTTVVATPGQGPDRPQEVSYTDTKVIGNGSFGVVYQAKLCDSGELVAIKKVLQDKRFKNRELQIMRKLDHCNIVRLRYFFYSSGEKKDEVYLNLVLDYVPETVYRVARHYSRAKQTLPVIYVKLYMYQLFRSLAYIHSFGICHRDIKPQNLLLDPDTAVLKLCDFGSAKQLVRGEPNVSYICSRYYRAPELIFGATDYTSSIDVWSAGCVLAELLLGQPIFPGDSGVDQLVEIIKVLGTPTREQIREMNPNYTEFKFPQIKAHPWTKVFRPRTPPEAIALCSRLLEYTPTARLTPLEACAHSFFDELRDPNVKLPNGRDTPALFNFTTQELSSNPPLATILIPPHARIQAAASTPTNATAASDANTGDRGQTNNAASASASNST
Assay Comment: concentration-response blocking of human GSK3B – biochemical, luminescence, cell-free homogeneous, retest, dose response (AID 434954)
pEC50: −log10 of the molar value.
Property Label: pEC50

compound="COc1ccc(CNCC2COc3ccccc3O2)cc1 (stereo not given) [SMR000588087]" system_tested="Glycogen synthase kinase-3 beta (Homo sapiens)" property_label=pEC50 recorded_value="< 3.52"
compound="Cc1ccc(C(=O)Nc2ccccc2C(=O)NCc2ccco2)cc1S(=O)(=O)N1CCCCC1 [SMR000076380]" system_tested="Glycogen synthase kinase-3 beta (Homo sapiens)" property_label=pEC50 recorded_value="< 3.52"
compound="CC(CC(=O)Nc1ccc2c(c1)OCO2)=NNC(=O)c1ccc(N)cc1 [MLS001042207]" system_tested="Glycogen synthase kinase-3 beta (Homo sapiens)" property_label=pEC50 recorded_value="< 3.52"
compound=Nc1nc(NCCCN2CCOCC2)nc(Nc2ccc(F)cc2)c1[N+](=O)[O-] system_tested="Glycogen synthase kinase-3 beta (Homo sapiens)" property_label=pEC50 recorded_value="< 3.52"
compound=CCOC(=O)c1nnn(-c2nonc2N)c1CN1CCc2ccccc2C1 system_tested="Glycogen synthase kinase-3 beta (Homo sapiens)" property_label=pEC50 recorded_value=4.15
